Please go through the items and note down their % Inhibition of DON/AcDON at 50 μM.
- Tested on: Fusarium graminearum
- Type: cell-based
- assay.conditions: 50 μM; 7 days at 28° C.
One number for each entry, in %.

Example entries begin here.
// query Entry CC(=O)N(C(C)=O)c1cc(-c2cnn(/C=C/F)c2-c2ccc(Cl)s2)ccn1 has what % Inhibition of DON/AcDON at 50 μM?
// result 100

// query Next compound up: CCC(C)n1nc(-c2ccc(Cl)s2)c(-c2ccncc2)c1Cl (centres unmarked)
// result 94

// query Next compound up: CCn1cc(-c2ccnc(NC(=O)COC)c2)c(-c2ccc(Cl)s2)n1
// result 98

// query Next compound up: CC(C)n1cc(-c2ccncc2)c(-c2cccs2)n1
// result 99

Proceed to the following item.
// query Entry CCC(C)n1cc(-c2ccncc2)c(-c2ccc(C(F)(F)F)s2)n1 (centres unmarked) has what % Inhibition of DON/AcDON at 50 μM?
// result 99
